- System: U251 CNS
- procedure.text: NCI tumour cell line growth inhibition, 48 h
Here the recorded TGI is given for each entry.

Answered cases to consult:
molecule	TGI
CN(C)C(=S)Nc1nnc(Nc2ccccc2)s1	> 100 µM
CCNc1ncnc2sc(SCc3ccccc3)nc12	> 100 µM
COc1cc(C(O)c2ccc3c(c2)OCO3)cc(OC)c1OC (stereo unspecified)	> 100 µM

query: Tell me the measured TGI of `CCOC(=O)N1CCN(CCCCCOc2ccccc2C2CCCCC2)CC1` , please.
result: 19 µM

query: Tell me the measured TGI of COc1ccc(N2C(=O)C3c4[nH]c5ccccc5c4C4CCCCCCCCCC4C3C2=O)cc1 (stereo unspecified) , please.
result: > 10 µM

query: Tell me the measured TGI of `COc1ccc(C2=C(N3CCc4ccccc43)C(=O)NC2=O)cc1` , please.
result: > 25 µM

query: Tell me the measured TGI of O=c1[nH]c2cc([N+](=O)[O-])ccc2nc1/C(=N\Nc1ccccc1)C(O)c1ccc2c(c1)OCO2 (stereo unspecified) , please.
result: > 100 µM

query: Tell me the measured TGI of `Cc1cc(O)c(-c2cc(O)c(C)cc2O)cc1O` , please.
result: 30.3 µM
